assay-system: OsSMF1 (Oryza sativa, UniProt Q6ZLB0 1-436)
Sequence: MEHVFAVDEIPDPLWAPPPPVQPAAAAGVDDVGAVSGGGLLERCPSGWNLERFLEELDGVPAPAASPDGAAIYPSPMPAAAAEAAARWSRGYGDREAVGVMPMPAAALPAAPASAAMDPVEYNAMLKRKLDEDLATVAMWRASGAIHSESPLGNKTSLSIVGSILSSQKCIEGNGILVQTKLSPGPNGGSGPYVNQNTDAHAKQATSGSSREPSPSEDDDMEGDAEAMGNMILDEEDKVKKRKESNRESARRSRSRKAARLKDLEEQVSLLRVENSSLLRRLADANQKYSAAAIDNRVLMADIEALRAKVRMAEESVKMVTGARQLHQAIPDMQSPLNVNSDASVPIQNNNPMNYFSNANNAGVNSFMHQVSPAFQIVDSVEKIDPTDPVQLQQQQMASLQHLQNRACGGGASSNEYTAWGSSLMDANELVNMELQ
method-notes: protein-binding microarray (RPBM); PBS, 2% BSA, 51.3 ng/ul salmon testes DNA, 50 uM zinc acetate, 200 nM TF, 25 C, 1 h; high values mean tight binding
condition-label: protein: recombinant; tags: N-terminal polyhistidine and DsRed monomer fusion (pET32a); chain copies: 2; label: CyDye5-dUTP incorporated in the synthesized complementary strand; 3' TTTTT single-stranded linker to array surface; dsDNA, one strand shown
The full ranking holds about 39,000 sequences; the median of “fluorescence intensity (a.u.)” is about 4,300, and the highest 2% start at about 39,000. The full list was thinned out, with the highest values kept by preference.
Parameter binding signal: see the listing below.
assay-metric: binding signal

> print(dat)
                            sequence.record    assay.metric                       value.reported
1  TTTTCTATCACATCGTTTTAATTTCAATCAAACTTCCAATCGGAGTCACCTAGTGCAG  binding signal  45300 fluorescence intensity (a.u.)
2  ACAAACTTCCAACTTTTCTATCACATCGTTCCAATTTCAACGGAGTCACCTAGTGCAG  binding signal  22100 fluorescence intensity (a.u.)
3  CAACAAATTTAAATTTATAGACGTCACCATACTGAAGGCGCGGAGTCACCTAGTGCAG  binding signal   5460 fluorescence intensity (a.u.)
4  GGGTCATATAGAGACGACGATCAAATTTACCTTATTTTAACGGAGTCACCTAGTGCAG  binding signal   3240 fluorescence intensity (a.u.)
5  TCCATTGCATATAATTCAATTCATCGAAATCATGACATTTCGGAGTCACCTAGTGCAG  binding signal  46400 fluorescence intensity (a.u.)

====

assay-system: OsSMF1 (Oryza sativa, UniProt Q6ZLB0 1-436)
Sequence: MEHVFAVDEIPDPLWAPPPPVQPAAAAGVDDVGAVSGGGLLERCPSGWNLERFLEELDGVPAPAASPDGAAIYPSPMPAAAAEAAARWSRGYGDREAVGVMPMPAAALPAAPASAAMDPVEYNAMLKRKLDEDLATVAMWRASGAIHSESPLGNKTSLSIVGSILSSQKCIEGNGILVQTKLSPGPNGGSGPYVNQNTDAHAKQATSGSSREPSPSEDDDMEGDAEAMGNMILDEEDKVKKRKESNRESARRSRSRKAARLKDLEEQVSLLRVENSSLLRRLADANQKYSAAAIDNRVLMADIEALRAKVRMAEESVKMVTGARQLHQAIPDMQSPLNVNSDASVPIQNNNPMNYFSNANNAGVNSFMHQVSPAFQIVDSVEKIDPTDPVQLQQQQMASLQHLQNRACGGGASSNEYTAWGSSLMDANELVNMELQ
method-notes: protein-binding microarray (RPBM); PBS, 2% BSA, 51.3 ng/ul salmon testes DNA, 50 uM zinc acetate, 200 nM TF, 25 C, 1 h; high values mean tight binding
condition-label: protein: recombinant; tags: N-terminal polyhistidine and DsRed monomer fusion (pET32a); chain copies: 2; label: CyDye5-dUTP incorporated in the synthesized complementary strand; 3' TTTTT single-stranded linker to array surface; dsDNA, one strand shown
The full ranking holds about 39,000 sequences; the median of “fluorescence intensity (a.u.)” is about 4,300, and the highest 2% start at about 39,000. The list comes from a sample in which the highest values are over-represented; it also holds close analogues and randomly drawn sequences.
assay-metric: binding signal

> print(dat)
                            sequence.record                              assay.system                       value.reported
1  CGACGTCGGCGAGGGAGGGCTTCCTGGGCACGTCGGCGAGCGGAGTCACCTAGTGCAG  OsSMF1 (Oryza sativa, UniProt Q6ZLB0 1-436)   3150 fluorescence intensity (a.u.)
2  CTTCATACTGCAGTATCTGAAAAGATGTCATTGTAAAGTTCGGAGTCACCTAGTGCAG  OsSMF1 (Oryza sativa, UniProt Q6ZLB0 1-436)   3140 fluorescence intensity (a.u.)
3  CCGCCTGACACGTGTAAGAGCAAGTTTAATAGTATAGCCCCGGAGTCACCTAGTGCAG  OsSMF1 (Oryza sativa, UniProt Q6ZLB0 1-436)  13800 fluorescence intensity (a.u.)
4  ATATAGCATGTCAAGATATTTGGGTGATATGTACTATGTACGGAGTCACCTAGTGCAG  OsSMF1 (Oryza sativa, UniProt Q6ZLB0 1-436)   4580 fluorescence intensity (a.u.)
5  GCGGAGGTCGACCTTGGCGAGGTCGTCCACGTCCGGGTGCCGGAGTCACCTAGTGCAG  OsSMF1 (Oryza sativa, UniProt Q6ZLB0 1-436)   3340 fluorescence intensity (a.u.)
6  CTGCACTACGCCGCAGACGAACTGACGTGGTCGTATAAAACGGAGTCACCTAGTGCAG  OsSMF1 (Oryza sativa, UniProt Q6ZLB0 1-436)   5790 fluorescence intensity (a.u.)
7  TCCTCTTCTCCTCCGCCGCATCAGCAATCTCTCTTTCTACCGGAGTCACCTAGTGCAG  OsSMF1 (Oryza sativa, UniProt Q6ZLB0 1-436)   4100 fluorescence intensity (a.u.)
8  TGATACGATGACGTTTGGGTGGTTGGATATATATCATGATCGGAGTCACCTAGTGCAG  OsSMF1 (Oryza sativa, UniProt Q6ZLB0 1-436)   5350 fluorescence intensity (a.u.)
9  CTTCGCTCTCTTTTCCATTGCAGAGCCCTCACGCTTCCGCCGGAGTCACCTAGTGCAG  OsSMF1 (Oryza sativa, UniProt Q6ZLB0 1-436)   3570 fluorescence intensity (a.u.)
